System: NCI-H23
Experiment: NCI tumour cell line growth inhibition, 48 h
Calls of active or inactive are those of the source. No stated cut-off is given here; in the data, active = GI50 up to about 1.1 µM and inactive = higher. Where a SMILES comes first, the peptide text is derived from it. The star is where a group is joined. Boc = CC(C)(C)OC(=O)*
Tick one outcome: TRUE for active, FALSE for inactive

### Prompt // outcome(item) with item = `Cc1nc2c(n1Cc1ccc(F)cc1)C(=O)c1ccccc1C2=O`
### Response FALSE

### Prompt // outcome(item) with item = CCCCC[C@@H]1OCO[C@@]2(C)/C=C(C)\C=C/C(=O)O[C@H]([C@@H](C)[C@@H](O)[C@H](C)[C@@]3(O)C[C@@H](O[C@H]4C[C@@H](O)[C@H](O)[C@@H](C)O4)[C@H](C)[C@@H](C)O3)[C@@H](OC)/C=C\C=C(\C)C[C@@H]1[C@@H]2O (stereo in doubt)
### Response TRUE

### Prompt // outcome(item) with item = CCC(CCCC[C@H]1CC[C@@H]2CC(=O)C[C@H]12)OC (some centres not stated)
### Response FALSE

### Prompt // outcome(item) with item = CN(C)CCNC(=O)c1cccc2c(NC(CCCNC(=N)N)C(=O)O)c3ccccc3nc12 (configuration not stated)
### Response FALSE

### Prompt // outcome(item) with item = `Cn1cc(NC(=O)c2cc(NC(=O)CCCCCCCC(=O)Nc3cc(C(=O)Nc4cc(C(=O)NCCC(=N)N)n(C)c4)n(C)c3)cn2C)cc1C(=O)NCCC(=N)N`
### Response FALSE

### Prompt // outcome(item) with item = COC(=O)C(Cc1c[nH]c2ccccc12)NC(=O)C(Cc1c[nH]c2ccccc12)NC(=O)C(Cc1c[nH]c2ccccc12)NC(=O)OC(C)(C)C (stereo not drawn) (Boc-Trp-Trp-Trp-OMe; configuration not given here)
### Response FALSE

### Prompt // outcome(item) with item = Cc1oc2c(C)c3oc(=O)cc(C)c3cc2c1CN1C(=O)C2OCCOCCOCCOCCOCCO[C@H]2C1=O (some centres not stated)
### Response FALSE

### Prompt // outcome(item) with item = `Cn1c(=O)c2nc(CCS)[nH]c2n(C)c1=O`
### Response FALSE

### Prompt // outcome(item) with item = CC/C(C)=C1\OC(=O)C(C)C(O)C(Cc2cccnc2)NC(=O)C(NC(=O)c2ncccc2O)C(C)OC1=O (configuration not stated)
### Response FALSE

### Prompt // outcome(item) with item = `COc1cc(S(=O)(=O)N/N=C/C=C/c2ccccc2)c(OC)cc1NC(C)=O`
### Response FALSE

### Prompt // outcome(item) with item = `CC#N.O[C@@H]1CCCC[C@H]1O.O[C@@H]1CCCC[C@H]1O.[TeH2]`
### Response FALSE

### Prompt // outcome(item) with item = `O=C(/N=C(/Nc1ccccc1)SCS/C(=N\C(=O)c1ccco1)Nc1ccccc1)c1ccco1`
### Response FALSE

### Prompt // outcome(item) with item = CC(C)(C)[Si](C)(C)OCC1OC(n2ccc(=O)[nH]c2=O)C(O[Si](C)(C)C(C)(C)C)/C1=N/O (configuration not stated)
### Response FALSE

### Prompt // outcome(item) with item = CN1N=C(c2ccncc2)OC1c1ccccc1F (configuration not stated)
### Response FALSE

### Prompt // outcome(item) with item = `COc1cc(/C=C(/C#N)C(N)=O)ccc1O`
### Response FALSE

### Prompt // outcome(item) with item = CC(=O)NC(CCCN(Cc1ccccc1)C(=O)N(CCCl)N=O)C(=O)NCc1ccccc1 (configuration not stated)
### Response FALSE

### Prompt // outcome(item) with item = `CCOC(=O)C(=O)Nc1c(C)cccc1CC`
### Response FALSE

====

Would you mind telling me the reported GI50 of each entry?
Test system: T47D
Test: NCI tumour cell line growth inhibition, 48 h
Active and inactive are the calls of the source. Cut-off read from the data, not from the text of the source: active = GI50 up to about 1.1 µM and inactive = higher. Where a SMILES comes first, the peptide text is derived from it. The star is where a group is joined. Boc = CC(C)(C)OC(=O)*

### Prompt Given the entry COC(=O)C(Cc1c[nH]c2ccccc12)NC(=O)C(Cc1c[nH]c2ccccc12)NC(=O)C(Cc1c[nH]c2ccccc12)NC(=O)OC(C)(C)C (stereo not drawn) (Boc-Trp-Trp-Trp-OMe; configuration not given here) , report its measured GI50.
### Response 4.67 µM (inactive)

### Prompt Given the entry O=c1[nH]c2cc(Cl)ccc2nc1/C(=N/Nc1ccccc1)C(O)c1ccco1 (centres undefined) , report its measured GI50.
### Response > 100 µM (inactive)

### Prompt Given the entry `CC1=CCC[C@H]2[C@](C)(CC3=CC(=O)C(SCC(C)C)=CC3=O)[C@@H](C)CC[C@]12C` , report its measured GI50.
### Response 2.25 µM (inactive)

### Prompt Given the entry CC1=CC2C(C(C)C)CC1C1C(=O)OC(=O)C21 (centres undefined) , report its measured GI50.
### Response 49.8 µM (inactive)

### Prompt Given the entry `CSc1nc(-c2ccccc2)[nH]c(=O)n1` , report its measured GI50.
### Response > 100 µM (inactive)

### Prompt Given the entry CC1(C23CC4CC(CC(C4)C2)C3)n2c(=O)n(-c3ccccc3)c(=O)n2C1(C)C12CC3CC(CC(C3)C1)C2 (centres undefined) , report its measured GI50.
### Response > 100 µM (inactive)

### Prompt Given the entry `NC1=Nc2ccccc2Sc2nccn21` , report its measured GI50.
### Response 24.7 µM (inactive)

### Prompt Given the entry CCCCC[C@@H]1OCO[C@@]2(C)/C=C(C)\C=C/C(=O)O[C@H]([C@@H](C)[C@@H](O)[C@H](C)[C@@]3(O)C[C@@H](O[C@H]4C[C@@H](O)[C@H](O)[C@@H](C)O4)[C@H](C)[C@@H](C)O3)[C@@H](OC)/C=C\C=C(\C)C[C@@H]1[C@@H]2O (stereo in doubt) , report its measured GI50.
### Response < 0.005 µM (active)

### Prompt Given the entry CC(C)(C)OC(=O)NCCCCC1NC(=O)[C@@H]2Cc3c([nH]c4ccccc34)C(c3ccccc3)N2C1=O (some centres undefined) , report its measured GI50.
### Response 18 µM (inactive)

### Prompt Given the entry `Oc1nc(-c2cccc(F)c2)nc2ccccc12` , report its measured GI50.
### Response > 100 µM (inactive)

### Prompt Given the entry `NCCCN1CCN(CCCNc2ccc3ncn4c5ccccc5c(=O)c2c34)CC1` , report its measured GI50.
### Response 3.02 µM (inactive)

### Prompt Given the entry COc1ccccc1N1C(=O)C2C3c4ccccc4C(OC(C)=O)(c4ccccc43)C2C1=O (centres undefined) , report its measured GI50.
### Response > 100 µM (inactive)

### Prompt Given the entry Clc1c(Cl)c(Cl)c2nn(C3CCCO3)nc2c1Cl (centres undefined) , report its measured GI50.
### Response 37 µM (inactive)

### Prompt Given the entry N=C(N)SC1c2ccccc2-c2cc([N+](=O)[O-])ccc21 (centres undefined) , report its measured GI50.
### Response 2.95 µM (inactive)

### Prompt Given the entry CC1CCC2(C(=O)O)CCC3(C)C(=CCC4C5(C)CCC(O)C(C)(C)C5CCC43C)C2C1C (centres undefined) , report its measured GI50.
### Response 14.2 µM (inactive)

### Prompt Given the entry COc1c2ccoc2c(OC)c2oc(=O)ccc12 [ISOPIMPINELLIN] , report its measured GI50.
### Response > 100 µM (inactive)

### Prompt Given the entry `O=[N+]([O-])c1ccc2c(Nc3ccccc3-c3ccccc3Nc3c4ccccc4nc4cc([N+](=O)[O-])ccc34)c3ccccc3nc2c1` , report its measured GI50.
### Response 7.24 µM (inactive)

### Prompt Given the entry `CC(=O)Nc1sccc1S(=O)(=O)c1ccc(Cl)cc1` , report its measured GI50.
### Response > 100 µM (inactive)

### Prompt Given the entry CC1CC[C@@]2(OC1)O[C@H]1[C@H](O)[C@H]3[C@@H]4CC[C@H]5C[C@@H](OC6OC(CO)C(OC7OC(CO)C(O)C(OC8OCC(O)C(O)C8O)C7OC7OC(CO)C(O)C(O)C7OC7OC(CO)C(O)C(O)C7O)C(O)C6O)[C@H](O)C[C@]5(C)[C@H]4CC[C@]3(C)[C@H]1[C@@H]2C (some centres undefined) , report its measured GI50.
### Response > 10 µM (inactive)

### Prompt Given the entry `CCn1c(-c2ccc(/N=N/Nc3ccc(-c4n[nH]c(=S)n4CC)cc3)cc2)n[nH]c1=S` , report its measured GI50.
### Response 0.861 µM (active)

### Prompt Given the entry `CC(C)(C)C1=CC(=CC=C2C=CN(CCCCCCCCCCCO)C=C2)C=C(C(C)(C)C)C1=O` , report its measured GI50.
### Response 0.498 µM (active)

### Prompt Given the entry `O=C(NCCNCCO)N/N=C/c1ccc([N+](=O)[O-])cc1` , report its measured GI50.
### Response > 100 µM (inactive)

### Prompt Given the entry `COc1cc2c(cc1OCCCNC(=O)c1cc3ccccc3[nH]1)N=C[C@@H]1CCCN1C2=O` , report its measured GI50.
### Response 0.229 µM (active)

### Prompt Given the entry C[C@H](CCC(=O)O)[C@H]1CC[C@H]2[C@@H]3[C@H](O)[C@H](O)[C@@H]4C[C@H](O)CC[C@]4(C)[C@H]3CC[C@]12C [HYOCHOLIC ACID] , report its measured GI50.
### Response > 100 µM (inactive)

### Prompt Given the entry `Cn1c(=O)c2nc(CCS)[nH]c2n(C)c1=O` , report its measured GI50.
### Response > 100 µM (inactive)

### Prompt Given the entry Cc1cc(-c2ccc(Cl)cc2)c(C#N)c(=S)n1C1OC(CO)C(O)C(O)C1O (centres undefined) , report its measured GI50.
### Response 99.8 µM (inactive)

### Prompt Given the entry `COCOc1ccc(C(=O)Oc2cccc3c2OC(C)(C)O3)c(OCOC)c1` , report its measured GI50.
### Response 37.8 µM (inactive)

### Prompt Given the entry `Cn1ccnc1Sc1ccc(/C=N/NC(=O)c2ccccc2O)cc1[N+](=O)[O-]` , report its measured GI50.
### Response 80.2 µM (inactive)

### Prompt Given the entry O=C(NN1C(=O)CSC1c1ccco1)c1ccncc1 (centres undefined) , report its measured GI50.
### Response > 100 µM (inactive)

### Prompt Given the entry `Cc1cc(C)c(C#N)c(SC(=S)NC(=O)c2ccccc2)n1` , report its measured GI50.
### Response > 100 µM (inactive)

### Prompt Given the entry `N=C(NCc1ccccc1)N/N=C\c1ccnc2ccccc12` , report its measured GI50.
### Response 1.41 µM (inactive)

### Prompt Given the entry Cc1ccc2c(c1)NC(c1ccc(C(=O)O)cc1)c1cccn1-2 (centres undefined) , report its measured GI50.
### Response 13.7 µM (inactive)

### Prompt Given the entry `NC(=O)C[C@H](NC(=O)C1(NC(=O)[C@H](Cc2ccc(CP(=O)(O)O)cc2)NC(=O)C(=O)O)CCCCC1)C(=O)NCCCc1cccc2ccccc12` , report its measured GI50.
### Response > 10 µM (inactive)

### Prompt Given the entry `COC(=O)c1cc2c(o1)Sc1ccccc1NC2=O` , report its measured GI50.
### Response > 100 µM (inactive)
